Biological target: KRas G12V (Homo sapiens, UniProt P01116, G12V)
Sequence (P01116 1-169 isoform P01116-2 G12V): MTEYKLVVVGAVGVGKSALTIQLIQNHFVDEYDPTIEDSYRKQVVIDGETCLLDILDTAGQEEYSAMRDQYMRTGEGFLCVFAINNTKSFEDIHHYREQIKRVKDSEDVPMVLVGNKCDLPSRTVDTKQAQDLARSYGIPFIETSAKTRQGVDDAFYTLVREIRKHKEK
Test: biochemical
pIC50: −log10 of the molar value.
Label true (1) when pIC50 is at or above 7; anything below gets false (0).

[[record]]
compound = "C#Cc1c(F)ccc2cc(O)cc(-c3ncc4c(N5CCCC6(CC(O)C6)C5)nc(OC[C@@]56CCCN5C[C@H](F)C6)nc4c3F)c12 (stereo partly shown)"
qualitative_label = "true (1)"

[[record]]
compound = "Cc1cc2[nH]ncc2c(-c2ncc3c(N4CCCC5(CNS(=O)(=O)N5)C4)nc(OCC45CCCN4CCC5)nc3c2F)c1C (stereo not shown)"
qualitative_label = "true (1)"

[[record]]
compound = "NS(=O)(=O)CC1CCCN(c2nc(OCC34CCCN3CCC4)nc3c(F)c(-c4cccc5cccc(CF)c45)ncc23)C1 (stereo not shown)"
qualitative_label = "false (0)"

[[record]]
compound = "CCc1c(F)ccc2cc(O)cc(-c3ncc4c(N5CCOCC(C)(CO)C5)nc(OC[C@@]56CCCN5C[C@H](F)C6)nc4c3F)c12 (stereo partly shown)"
qualitative_label = "true (1)"

[[record]]
compound = "CCc1c(F)ccc2cc(O)cc(-c3ncc4c(N5CCCC(C#N)CC5)nc(OC[C@@]56CCCN5C[C@H](F)C6)nc4c3F)c12 (stereo partly shown)"
qualitative_label = "true (1)"

[[record]]
compound = "Oc1cc(-c2ncc3c(N4CC5CC(O)C(C5)C4)nc(OC[C@@]45CCCN4C[C@H](F)C5)nc3c2F)c2c(Cl)c(F)ccc2c1 (stereo partly shown)"
qualitative_label = "true (1)"

[[record]]
compound = "Fc1c(-c2cccc3cccc(F)c23)ncc2c(N3CCCC4(CCC(F)C4)C3)nc(OCC34CCCN3CCC4)nc12 (stereo not shown)"
qualitative_label = "false (0)"

[[record]]
compound = "NS(=O)(=O)CC1CN(c2nc(OCC34CCCN3CCC4)nc3c(F)c(-c4cccc5cccc(F)c45)ncc23)CCO1 (stereo not shown)"
qualitative_label = "false (0)"

[[record]]
compound = "Oc1cc(-c2ncc3c(N4CC5CC(O)C(C5)C4)nc(OC[C@@]45CCCN4C[C@H](F)C5)nc3c2F)c2c(Br)c(F)ccc2c1 (stereo partly shown)"
qualitative_label = "true (1)"

[[record]]
compound = "CCc1c(F)ccc2cc(O)cc(-c3ncc4c(NC56CC(O)(C5)C6)nc(OC[C@@]56CCCN5C[C@H](F)C6)nc4c3F)c12"
qualitative_label = "true (1)"

[[record]]
compound = "CCc1c(F)ccc2cc(O)cc(-c3ncc4c(N5CCC[C@@](C)(O)C5)nc(C(=O)NC(C)CN(C)C)nc4c3F)c12 (stereo partly shown)"
qualitative_label = "false (0)"

[[record]]
compound = "O=C1NC(=O)C2(CCCN(c3nc(OC[C@@]45CCCN4C[C@H](F)C5)nc4c(F)c(-c5cc(O)cc6ccc(F)c(Br)c56)ncc34)C2)N1 (stereo partly shown)"
qualitative_label = "true (1)"

[[record]]
compound = "CCc1c(F)ccc2cc(O)cc(-c3ncc4c(NC56CC(CO)(C5)C6)nc(OC[C@@]56CCCN5C[C@H](F)C6)nc4c3F)c12"
qualitative_label = "true (1)"


###

Biological target: KRas G12D (Homo sapiens, UniProt P01116, G12D);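 note: TR-FRET displacement binding assay on KRas, read after a one-hour incubation at room temperature, IC50 fitted from percent-of-control values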
Sequence (P01116 1-169 isoform P01116-2 G12D): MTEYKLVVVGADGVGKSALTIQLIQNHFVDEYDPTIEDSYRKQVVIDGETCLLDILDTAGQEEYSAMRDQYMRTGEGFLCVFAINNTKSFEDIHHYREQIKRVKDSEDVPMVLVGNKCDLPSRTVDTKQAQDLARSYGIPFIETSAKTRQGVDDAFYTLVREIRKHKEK
Assay: biochemical
IC50 under 100 nM gets true, anything at or over 100 nM gets false.

[[record]]
compound = "NS(=O)(=O)CC1CCCN(c2nc(OCC34CCCN3CCC4)nc3c(F)c(-c4cccc5cccc(CO)c45)ncc23)C1 (centres unmarked)"
qualitative_label = "false"

[[record]]
compound = "O=C1CC2(CCCN(c3nc(OCC45CCCN4CCC5)nc4c(F)c(-c5cc(O)cc(Cl)c5C5CC5)ncc34)C2)N1 (centres unmarked)"
qualitative_label = "true"

[[record]]
compound = "CCc1c(F)ccc2cc(O)cc(-c3ncc4c(NCCc5c[nH]nn5)nc(OC[C@@]56CCCN5C[C@H](F)C6)nc4c3F)c12"
qualitative_label = "true"

[[record]]
compound = "Fc1c(-c2cccc3cccc(F)c23)ncc2c(N3CCCSCC3)nc(OCC34CCCN3CCC4)nc12"
qualitative_label = "false"

[[record]]
compound = "OC1CC2CC1CN(c1nc(OCC34CCCN3CCC4)nc3c(F)c(-c4cccc5cccc(F)c45)ncc13)C2 (centres unmarked)"
qualitative_label = "false"

[[record]]
compound = "CCc1c(F)ccc2cc(O)cc(-c3ncc4c(NCC5CC(=O)NC5=O)nc(OC[C@@]56CCCN5C[C@H](F)C6)nc4c3F)c12 (some centres unmarked)"
qualitative_label = "true"

[[record]]
compound = "CCc1c(F)ccc2cc(O)cc(-c3ncc4c(NCCCc5cccnc5)nc(OC[C@@]56CCCN5C[C@H](F)C6)nc4c3F)c12"
qualitative_label = "true"

[[record]]
compound = "C#Cc1cccc2cccc(-c3ncc4c(N5CCCC(C)(O)C5)nc(OCC56CCCN5CCC6)nc4c3F)c12 (centres unmarked)"
qualitative_label = "false"

[[record]]
compound = "Cc1cccc2cccc(-c3ncc4c(N5CCCC6(CC(=O)N6)C5)nc(OCC56CCCN5CCC6)nc4c3F)c12 (centres unmarked)"
qualitative_label = "false"

[[record]]
compound = "Fc1c(-c2cccc3cccc(F)c23)ncc2c(Nc3cnc4cnccn34)nc(OCC34CCCN3CCC4)nc12"
qualitative_label = "false"

[[record]]
compound = "C#Cc1c(F)ccc2cc(O)cc(-c3ncc4c(N5CCOCC(C)(O)C5)nc(OC[C@@]56CCCN5C[C@H](F)C6)nc4c3F)c12 (some centres unmarked)"
qualitative_label = "true"

[[record]]
compound = "CCc1c(F)ccc2cc(O)cc(-c3ncc4c(NCc5c[nH]cn5)nc(OC[C@@]56CCCN5C[C@H](F)C6)nc4c3F)c12"
qualitative_label = "true"

[[record]]
compound = "CCc1c(F)ccc2cc(O)cc(-c3ncc4c(N5CCOCC(C)(CO)C5)nc(OC[C@@]56CCCN5C[C@H](F)C6)nc4c3F)c12 (some centres unmarked)"
qualitative_label = "true"

[[record]]
compound = "OCC1COCCN(c2nc(OC[C@@]34CCCN3C[C@H](F)C4)nc3c(F)c(-c4cc(O)cc5ccc(F)c(Cl)c45)ncc23)C1 (some centres unmarked)"
qualitative_label = "true"

[[record]]
compound = "CCc1c(F)ccc2cc(O)cc(-c3ncc4c(N(C)CC5CC(=O)N5)nc(OC[C@@]56CCCN5C[C@H](F)C6)nc4c3F)c12 (some centres unmarked)"
qualitative_label = "true"

[[record]]
compound = "CCc1c(F)ccc2cc(O)cc(-c3ncc4c(N5CCCC6(CCS(=O)(=O)C6)C5)nc(OC[C@@]56CCCN5C[C@H](F)C6)nc4c3F)c12 (some centres unmarked)"
qualitative_label = "true"

[[record]]
compound = "CCc1cccc2cccc(-c3ncc4c(NCc5cn[nH]c5)nc(OCC56CCCN5CCC6)nc4c3F)c12"
qualitative_label = "false"


###

Measured IC50, listed per entry.
Target: KRas G12V (Homo sapiens, UniProt P01116, G12V);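 note: KRas binding measured by TR-FRET displacement at room temperature, IC50 fitted from percent of control values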
Assay: biochemical
recorded-endpoint: IC50

[[record]]
compound = "CCc1c(F)ccc2cc(O)cc(-c3ncc4c(N5CCC[C@]6(C5)NC(=O)NC6=O)nc(OCC5(CN6CCCC6)CC5)nc4c3F)c12 [Example 322]"
reported = "≤ 0.002 µM"

[[record]]
compound = "CCc1c(F)ccc2cc(O)cc(-c3ncc4c(N5CCC6(CC5)CC(=O)N6)nc(OC[C@@]56CCCN5C[C@H](F)C6)nc4c3F)c12 [Example 73]"
reported = "≤ 0.002 µM"

[[record]]
compound = "O=CNC1CCCN(c2nc(OCC34CCCN3CCC4)nc3c(F)c(-c4cccc5cccc(F)c45)ncc23)C1 (stereo not drawn) [Example 242]"
reported = "7.63 µM"


###

Target: KRas G12A (Homo sapiens, UniProt P01116, G12A);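 note: binding to KRas measured by TR-FRET displacement after one hour at room temperature, IC50 from a four-parameter fit of percent-of-control values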
Sequence (P01116 1-169 isoform P01116-2 G12A): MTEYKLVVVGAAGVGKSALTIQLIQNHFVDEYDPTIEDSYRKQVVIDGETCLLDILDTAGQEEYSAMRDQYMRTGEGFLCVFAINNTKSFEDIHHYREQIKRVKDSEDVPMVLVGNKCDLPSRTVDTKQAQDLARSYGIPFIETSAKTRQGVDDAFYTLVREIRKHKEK
Assay: biochemical
recorded-endpoint: IC50 (nM)

[[record]]
molecule = "Cn1cc(CNc2nc(OCC34CCCN3CCC4)nc3c(F)c(-c4cccc5cccc(F)c45)ncc23)ccc1=O"
recorded_endpoint = "IC50"
units_symbol = "nM"
reported = 1820

[[record]]
molecule = "Fc1c(-c2cccc3cccc(F)c23)ncc2c(Nc3cnc4cnccn34)nc(OCC34CCCN3CCC4)nc12"
recorded_endpoint = "IC50"
units_symbol = "nM"
reported = 48700

[[record]]
molecule = "CCc1cccc2cccc(-c3ncc4c(N5CC6C(=O)NC(=O)C6C5)nc(OCC56CCCN5CCC6)nc4c3F)c12 (stereo not shown)"
recorded_endpoint = "IC50"
units_symbol = "nM"
reported = 97

[[record]]
molecule = "Fc1c(-c2cccc3cccc(F)c23)ncc2c(NCc3c[nH]c4ncccc34)nc(OCC34CCCN3CCC4)nc12"
recorded_endpoint = "IC50"
units_symbol = "nM"
reported = 240

[[record]]
molecule = "Fc1c(-c2cccc3cccc(F)c23)ncc2c(NCCc3ccn[nH]3)nc(OCC34CCCN3CCC4)nc12"
recorded_endpoint = "IC50"
units_symbol = "nM"
reported = 26100

[[record]]
molecule = "CCc1c(F)ccc2cc(O)cc(-c3ncc4c(N5CCCCC5)nc(OC[C@@H]5C[C@@H](O)CN5C)nc4c3F)c12"
recorded_endpoint = "IC50"
units_symbol = "nM"
reported = 16

[[record]]
molecule = "Fc1c(-c2cccc3cccc(F)c23)ncc2c(NCc3ncc4cc[nH]c4n3)nc(OCC34CCCN3CCC4)nc12"
recorded_endpoint = "IC50"
units_symbol = "nM"
reported = 6550

